tested on: KM12 colon; test: NCI tumour cell line growth inhibition, 48 h; in the data active means GI50 below about 0.43 µM; inactive means the rest
The categories you may choose from are yes (1) for active, no (0) for inactive

Cc1nc2ccccc2c(/C=C/c2ccc(Br)cc2)c1C(=O)/C=C/c1ccccc1 = no (0)

Please indicate how the test categorized COC1O[C@@H]2C[C@H]3C(C)(C)CCC[C@]3(C)C3=CCCC1[C@@]32C (stereo partly drawn) .
no (0)

Check the results log: what was the call for `CC(C)(C)c1ccc(C(=O)Nc2sc3c(c2C(N)=O)CCC(=O)C3)cc1` ?
no (0)

Could you please tell me the result logged for COc1ccc2c(c1OC)C(=O)OC2C1c2c(c([N+](=O)[O-])c3c(c2OC)OCO3)CCN1C (stereo not drawn) in this assay?
no (0)

What did this assay record as the result for O=c1[nH]cnc2c(C3NC(CO)C(O)C3O)c[nH]c12 (stereo not drawn) ?
no (0)

Check the results log: what was the call for `O=C(N/N=C/c1cc(Cl)cc(Cl)c1O)c1ccccc1O` ?
no (0)

Short answer needed: outcome of this test for `O=C(Nc1cccc(Nc2ncc(Br)c(NCCc3cnc[nH]3)n2)c1)N1CCCC1` ?
no (0)

What classification did CCN1C(=O)N(CC)C2C1NN=c1s/c(=C\c3ccccc3Br)c(=O)n12 (stereo not drawn) end up with in this test?
yes (1)

So what was the verdict on `CN1CCN(Cc2ccc(NC(=O)c3[nH]ncc3Nc3ncnc4sc5c(c34)CCCC5)cc2)CC1` in this test?
yes (1)

Each molecule tested received a call. Report the one for `COc1ccc(OC)c(Cn2cc3c(c2)-c2oncc2CC3)c1` .
no (0)

Recorded call for `Cn1cc(-c2nonc2-c2cn(C)c3ccccc23)c2ccccc21` ?
no (0)

What outcome does the record of this test show for `N#Cc1ccc(N=Cc2c([O-])ccc3ccccc23)cc1.[C-]#[O+].[C-]#[O+].[Ir]` ?
no (0)

Assay result, entry `CCn1c2ccccc2c2cc(/C=C(/C#N)C(N)=O)ccc21` — outcome?
no (0)

Dear all, I need the recorded test outcome for C[C@@H]1O[C@@H](O[C@H]2CC[C@@]3(C)[C@H](CCC4[C@@H]3C(O)C[C@]3(C)[C@@H](c5ccc(=O)oc5)CC[C@]43O)C2)[C@H](O)[C@H](O)[C@H]1O (stereo partly drawn) , thank you.
yes (1)

What did this assay record as the result for `CC(C)(C)CN1CCn2c(nc3c(N)nccc32)S1` ?
no (0)

// param item: CCN(CCO)CC(C)Nc1ccc([N+](=O)[O-])c2sc3ccccc3c(=O)c12 (stereo not drawn) ; yields the recorded call
no (0)

Check the results log: what was the call for `CC(=O)Oc1ccccc1C(=O)/C=C/c1cccc([N+](=O)[O-])c1` ?
no (0)

Per the records of this test, what outcome belongs to `CC(=O)c1c(C(F)(F)F)n([O-])c2ccc(C)cc2[n+]1=O` ?
no (0)
